type: in vitro ADME, Rat; details: rat, pH 7.4
result_type: Hepatocyte Rat (%Qh)
Express your answer in %Qh, writing the number without its unit.

Dear colleague, I am looking for the recorded Hepatocyte Rat of the following compound: CCCCCn1cc(C[C@@H]2NC(=O)[C@H](CC(C)C)N(C)C(=O)[C@H](C(C)C)NC(=O)[C@H]([C@H](OC)c3ccccc3)NC(=O)[C@H](C)NC(=O)[C@H](C[C@@H](C)CO)N(C)C(=O)[C@H](Cc3cn(C)c4ccccc34)N(C)C2=O)nn1
16

Sample COC(c1ccccc1)C1NC(=O)C(C)NC(=O)C(CC(C)CO)N(C)C(=O)C(Cc2cn(C)c3ccccc23)NC(=O)C(Cc2cn(CCCCCn3cc(CC4NC(=O)C(CC(C)C)N(C)C(=O)C(C(C)C)NC(=O)C(C(OC)c5ccccc5)NC(=O)C(C)NC(=O)C(CC(C)CO)N(C)C(=O)C(Cc5cn(C)c6ccccc56)NC4=O)nn3)nn2)NC(=O)C(CC(C)C)N(C)C(=O)C(C(C)C)NC1=O (stereo not drawn) — what was its Hepatocyte Rat?
6

Reported Hepatocyte Rat, compound CO[C@H](c1ccccc1)[C@@H]1NC(=O)[C@H](C)NC(=O)[C@H](C[C@@H](C)CO)N(C)C(=O)[C@H](Cc2cn(C)c3ccccc23)NC(=O)[C@H](Cc2cn(CCOCCOCCn3cc(C[C@@H]4NC(=O)[C@H](CC(C)C)N(C)C(=O)[C@H](C(C)C)NC(=O)[C@H]([C@H](OC)c5ccccc5)NC(=O)[C@H](C)NC(=O)[C@H](C[C@@H](C)CO)N(C)C(=O)[C@H](Cc5cn(C)c6ccccc56)NC4=O)nn3)nn2)NC(=O)[C@H](CC(C)C)N(C)C(=O)[C@H](C(C)C)NC1=O : ____
6
